Target: Sodium- and chloride-dependent GABA transporter 1 (Mus musculus) (UniProt P31648)
Assay: Inhibition of NO711 binding to mouse GAT1 expressed in HEK293 cell membranes assessed as residual binding at 1 uM preincubated for 4 hrs followed by NO711 addition and measured after 40 mins by LC-ESI-MS/MS analysis relative to control
Activity reference
result_type: Activity (%)

>>> print(df.to_string())
                                   compound  censoring_sign  measured_result
0  O=C(O)[C@H]1CNC[C@H](CCN/N=C/c2sccc2-n2cccc2)C1 (racemic)               >               50
1                            O=Cc1cc(Br)co1               =              126
2  O=C(O)[C@H]1CNC[C@@H](CCN/N=C/c2ccccc2-n2cccc2)C1 (racemic)               =               82
3                  O=Cc1ccccc1-c1cccc(F)c1F               =              107
4                   O=Cc1ccc(-c2ccccc2Br)o1               =              129
5  Cn1cnnc1Sc1ccc(/C=N/NCC[C@@H]2CNC[C@H](C(=O)O)C2)o1 (racemic)               =               73
6  COc1ccc(/C=N/NC[C@@H]2CNC[C@H](C(=O)O)C2)cc1 (racemic)               =               85
7  Cc1ccsc1-c1sc(/C=N/NCC[C@@H]2CNC[C@H](C(=O)O)C2)cc1C (racemic)               =               79

###

Activity reference
Biological target: Sodium- and chloride-dependent GABA transporter 1 (Mus musculus) (UniProt P31648)
Test: Inhibition of NO711 binding to mouse GAT1 expressed in HEK293 cell membranes assessed as residual binding at 1 uM preincubated for 4 hrs followed by NO711 addition and measured after 40 mins by LC-ESI-MS/MS analysis relative to control
result_type: Activity (%)

In [3]: df
Out[3]:
                                   molecule  result_unit  measured_result
0                 Cc1ccc(-c2cccc(C=O)c2)cc1            %              104
1                   O=Cc1sccc1-c1ccc(F)cc1F            %              118
2  O=C(O)[C@H]1CNC[C@@H](CN/N=C/c2cnc(-c3cccs3)nc2)C1 (racemic)            %               60
3                     O=Cc1ccc(-c2ccccc2)o1            %               82
4  O=C(O)[C@H]1CNC[C@@H](CCN/N=C/c2ccccc2-c2ccsc2)C1 (racemic)            %               80
5  O=C(O)[C@H]1CNC[C@@H](CCN/N=C/c2ccc(-c3ccc(Cl)cc3F)o2)C1 (racemic)            %               64
6                     O=Cc1ccc(-c2ccccc2)s1            %              112
7                   O=Cc1cnc(SCc2ccccc2)nc1            %              116
